Measured Kd accompanies every entry in the list below.
- TARGET OR SYSTEM: nsp12 (RdRp) (SARS-CoV Frankfurt-1, UniProt P0C6X7 4370-5301)
- ASSAY PROTOCOL: EMSA
ASSAY ENDPOINT: Kd (nM)

binder="SAV557R/SAV481R primer-template duplex (dsRNA) RNA 1: GCUAUGUGAGAUUAAGUUAU RNA 2: UUUUUUUUUUAUAACUUAAUCUCACAUAGC" assay_endpoint=Kd meas_value=130
binder="GCUAUGUGAGAUUAAGUUAU (ssRNA) [SAV557R ssRNA]" assay_endpoint=Kd meas_value=100
